target-desc: human FLT3-ITD enzyme (Homo sapiens)
Sequence (P36888 1-993): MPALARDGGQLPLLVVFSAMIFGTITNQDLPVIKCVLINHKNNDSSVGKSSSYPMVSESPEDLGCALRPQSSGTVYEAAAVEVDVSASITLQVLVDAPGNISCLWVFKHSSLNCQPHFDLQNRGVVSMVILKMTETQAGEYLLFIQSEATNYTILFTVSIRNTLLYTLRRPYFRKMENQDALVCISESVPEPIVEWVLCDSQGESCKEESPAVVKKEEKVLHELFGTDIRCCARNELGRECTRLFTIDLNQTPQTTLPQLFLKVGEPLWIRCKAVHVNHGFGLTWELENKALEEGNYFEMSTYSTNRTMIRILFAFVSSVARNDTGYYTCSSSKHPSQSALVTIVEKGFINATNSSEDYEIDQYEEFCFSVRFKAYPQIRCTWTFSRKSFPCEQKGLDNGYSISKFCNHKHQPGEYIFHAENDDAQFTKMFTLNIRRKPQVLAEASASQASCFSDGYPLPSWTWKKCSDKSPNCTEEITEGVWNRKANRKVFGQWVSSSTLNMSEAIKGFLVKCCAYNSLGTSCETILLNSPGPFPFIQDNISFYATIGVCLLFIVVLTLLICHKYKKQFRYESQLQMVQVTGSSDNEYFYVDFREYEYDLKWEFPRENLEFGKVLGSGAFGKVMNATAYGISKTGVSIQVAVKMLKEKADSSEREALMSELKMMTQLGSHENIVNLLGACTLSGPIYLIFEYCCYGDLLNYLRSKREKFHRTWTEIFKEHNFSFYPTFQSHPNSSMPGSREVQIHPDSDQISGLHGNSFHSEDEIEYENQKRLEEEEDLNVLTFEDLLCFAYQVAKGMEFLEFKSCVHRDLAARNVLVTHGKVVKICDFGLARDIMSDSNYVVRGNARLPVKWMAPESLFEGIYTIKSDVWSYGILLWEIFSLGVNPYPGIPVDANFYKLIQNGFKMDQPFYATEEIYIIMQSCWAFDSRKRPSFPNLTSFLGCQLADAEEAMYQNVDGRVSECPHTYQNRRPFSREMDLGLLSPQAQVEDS
assay-explanation: FLT3 enzyme inhibitory ability (ADP-Glo kinase assay)
test-settings: human FLT3-ITD enzyme 10 ng, ATP 10 μM, 25° C. 1 hour
pIC50: −log10 of the molar value.
Listed next: entries and their corresponding pIC50.

{"columns": ["compound", "pIC50"],
 "data": [
  ["CCN1CCN(C2CCN(c3ccc(Nc4nc(N5OCC[C@H]5c5ccccc5)c5cc[nH]c5n4)cc3)CC2)CC1", "< 6.30"],
  ["c1ccc([C@@H]2CCON2c2nc(Nc3ccc4c(c3)CNCC4)nc3[nH]ccc23)cc1", "≤ 6.60"],
  ["CN1CCN(c2ccc(Nc3nc(N4OCC[C@H]4c4ccccc4)c4c(C(F)(F)F)c[nH]c4n3)cc2)CC1", "≤ 6.60"],
  ["Cc1cc(Nc2nc(N3N=CCC3c3ccccc3)c3sccc3n2)cc(C)c1OCCCN1CCN(C)CC1 (centres unmarked)", "< 6.30"],
  ["CN1CCN(C(=O)Nc2ccc(Nc3nc(N4N=CCC4c4ccccc4)c4sccc4n3)cc2)CC1 (centres unmarked)", "≤ 6.60"],
  ["OCCN1CCN(c2ccc(Nc3nc(N4OCC[C@H]4c4ccccc4)c4cc[nH]c4n3)cc2)CC1", "6.30 to 6.60"],
  ["CN1CCc2ccc(Nc3nc(N4OCC[C@H]4c4ccccc4)c4cc[nH]c4n3)cc2C1", "≤ 6.60"],
  ["COc1cc(Nc2nc(N3OCC[C@H]3c3ccccc3)c3sccc3n2)cc(C(=O)N2CCN(CCO)CC2)c1", "< 6.30"],
  ["CN1CCC(n2cc(Nc3nc(N4N=CCC4c4ccccc4)c4sccc4n3)cn2)CC1 (centres unmarked)", "< 6.30"],
  ["OCCN1CC[C@@H](Oc2cc(Nc3nc(N4OCC[C@H]4c4ccccc4)c4sccc4n3)cc(C3CC3)c2)C1", "< 6.30"],
  ["N#Cc1c[nH]c2nc(Nc3ccc4c(c3)CCNC4)nc(N3OCC[C@H]3c3ccccc3)c12", "≤ 6.60"],
  ["CN1CCC(NC(=O)c2ccc(Nc3nc(N4OCC[C@H]4c4ccccc4)c4cc[nH]c4n3)cc2)CC1", "< 6.30"],
  ["CN(C)C1CCN(c2ccc(Nc3nc(N4OCC[C@H]4c4ccccc4)c4cc[nH]c4n3)cc2)CC1", "≤ 6.60"],
  ["COc1cc(Nc2nc(N3OCC[C@@H]3c3ccccc3)c3sccc3n2)ccc1N1CCC(N2CCN(C)CC2)CC1", "< 6.30"],
  ["CN1CCN(c2ccc(Nc3nc(N4N=CCC4c4ccccc4)c4sccc4n3)cn2)CC1 (centres unmarked)", "< 6.30"],
  ["CN1CCN(c2ccc(Nc3nc(N4OCC[C@H]4c4cccs4)c4cc[nH]c4n3)cc2)CC1", "≤ 6.60"],
  ["CN1CCN(c2ccc(Nc3nc(N4N=CCC4C4CCCCC4)c4sccc4n3)cc2)CC1 (centres unmarked)", "< 6.30"],
  ["COc1cc(N2CCC(N3CCN(C)CC3)CC2)ccc1Nc1nc(N2N=CCC2c2ccccc2)c2sccc2n1 (centres unmarked)", "≤ 6.60"],
  ["CCN1CCN(c2ccc(Nc3nc(N4N=CCC4c4ccccc4)c4sccc4n3)c(OC)c2)CC1 (centres unmarked)", "≤ 6.60"],
  ["OCCN1CCN(C2CCN(c3ccc(Nc4nc(N5OCC[C@H]5c5ccccc5)c5cc[nH]c5n4)cc3)CC2)CC1", "6.30 to 6.60"],
  ["CN1CCN(c2ccc(Nc3nc(N4OCC[C@@H]4c4ccccc4)c4sccc4n3)cc2)CC1", "< 6.30"],
  ["COc1cc(-c2cnn(C)c2)ccc1Nc1nc(N2N=CCC2c2ccccc2)c2sccc2n1 (centres unmarked)", "< 6.30"],
  ["CN1C[C@H]2C[C@@H]1CN2c1cc(Nc2nc(N3OCC[C@H]3c3ccccc3)c3cc[nH]c3n2)cc(S(C)(=O)=O)c1", "< 6.30"]
]}
